From: paper PMC5943153

- Assayed system: T1, HP0221-T25 (NifU) (Helicobacter pylori strain 26695, UniProt O25009 2-326)
- T1 sequence (looked up): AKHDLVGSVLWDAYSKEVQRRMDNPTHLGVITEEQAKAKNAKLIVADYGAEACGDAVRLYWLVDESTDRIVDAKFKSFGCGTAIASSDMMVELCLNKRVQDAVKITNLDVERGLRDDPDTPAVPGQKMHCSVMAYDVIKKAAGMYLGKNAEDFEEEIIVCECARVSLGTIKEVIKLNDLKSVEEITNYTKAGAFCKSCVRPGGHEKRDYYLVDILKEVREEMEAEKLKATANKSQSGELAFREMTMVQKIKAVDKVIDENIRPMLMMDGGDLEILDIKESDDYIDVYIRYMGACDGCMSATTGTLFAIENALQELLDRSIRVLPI
- Procedure details: two-hybrid
List of growth OD595 in M63-maltose values.

Below, 2 binders whose answers are already recorded.
Req: Supply growth OD595 in M63-maltose value. Item: T18-HP1268 (natural protein, Helicobacter pylori strain 26695, UniProt O25858 2-220, looked up) AKQEYKQLPKRAEVHSATEQFKDTVKTSLGLDLFKGLGLTIKEFFSPSVTIHYPMEQLPLSPRYRAVHNLQRLLDSGSERCIGCGLCEKICTSNCIRIITHKGEDNRKKIDSYTINLGRCIYCGLCAEVCPELAIVMGNRFENASTQRSQYGSKSEFLTSEQDAKNCSHAEFLGFGAVSPNYNERMQATPLDYVQEPSKEESQEETPTNPESNKGDENV
Resp: 0.22 OD595

Req: Specify measured growth OD595 in M63-maltose for T18-HP0585 (natural protein, Helicobacter pylori strain 26695, UniProt O25307 2-218, looked up) KMGLKRAKTHQKAQQIKELLLKHYPNQTTELRHKNPYELLVATILSAQCTDARVNQITPKLFEKYPSVNDLALASLEEVKEIIKSVSYFNNKSKHLISMAQKVVRDFKGVIPSTQKELMSLDGVGQKTANVVLSVCFDANCIAVDTHVFRATHRLGLSNAKDPIKTEEELSDLFKDNLSKLHHALILFGRYTCKAKNPLCGACFLKEFCVSKASFKA .
Resp: 0.15 OD595

More entries:
Req: Give the reported growth OD595 in M63-maltose for this binder. T18-HP1428 (natural protein, Helicobacter pylori strain 26695, UniProt O25970 2-357, looked up) KASIYDFTLKELSQLLKPSFRAKQLYLWLYAKYKTSFKDMQNNFSKDFIAYLEREFALRTIEITHVRESVDGSKKYLFKSLRDNHTFEAVLLKMKDKKIDAETNAILEREKYTVCVSCQIGCQVGCSFCFTQKGGFVRNLKASEIIQQALLIKEDNNLPLEKALNIVFMGMGEPLNNLDEVCKAIEIFNTGMQISPKRITISTSGVADKIPILAGKNLGVQLAISLHAVDDKTRSSLMPLNKKYNIECVLNEVRKWPLEQRKRVMFEYLLIKDLNDSLDCAKKLLKLLNGIKSKVNLILFNPHEGSKFERPSLENARMFADFLNSKGLLCTIRESKALDIEAACGQLREKKLSQQI
Resp: 0.27 OD595

Req: Answer with reported growth OD595 in M63-maltose of T18-HP0656 (natural protein, Helicobacter pylori strain 26695, UniProt O25370 2-383, looked up) ARNVKGYASTLTWTITRNTLNFLWEQGFKMRINREEILDLMKNAPLKELGQRALRVKQRLHPENLTTFIVDRNINYTNICFVDCKFCAFKRTLKEKDAYVLSYEEIDQKIEELLAIGGTQILFQGGVHPQLKIDYYENLVSHIAQKFPTITIHGFSAVEIDYISKISKLSLKEVLERLKNAGLSSIPGAGAEVLSDRVRDVIAPKKLSSDRWIEVHRMAHLCGIKSTATMMFGSVDNEEDVVEHLQRVRDLQDETGGFRAFILWSFQPNNTPLKEEIPSIKKASSNRYLRYLACSRIFLDNIQNIQSSWVTQGSMIGQLALLFGANDLGSVMMEENVVKAAGTSFCMNEAGMIELIEDIGSVAAKRNTAYEILKRYPAKAKV
Resp: 0.26 OD595

Req: Item T18-HP0207 (natural protein, Helicobacter pylori strain 26695, UniProt O24999 2-368, looked up) LTQEDVLNALKTIIYPNFEKDIVSFGFVKNITLHDDQLGLLIEIPSSSEETSAILRENISKAMQEKGVKALNLDIKTPPKPQAPKPTTKNLAKNIKHVVMISSGKGGVGKSTTSVNLSIALANLNQKVGLLDADVYGPNIPRMMGLQSADVIMDPSGKKLIPLKAFGVSVMSMGLLYDEGQSLIWRGPMLMRAIEQMLSDIIWGDLDVLVVDMPPGTGDAQLTLAQAVPLSAGITVTTPQIVSLDDAKRSLDMFKKLHIPIAGIVENMGSFVCEHCKKESEIFGSNSMSELLEAYHTQILAKLPLEPKVRLGGDRGEPIVISHPNSVSAKIFEKMAQDLSAFLERVKKEKLADNKDIQPTQTHACSH : provide growth OD595 in M63-maltose
Resp: 0.13 OD595

Req: Please look at this binder and report its growth OD595 in M63-maltose: T18-HP0568 (natural protein, Helicobacter pylori strain 26695, UniProt O25292 2-255, looked up) PLELFEKVCKEVAPLTQMITLHVLGDPCKLKNLNHYLSTARRFSLKVDLVTSGVYLHDFETLLQDVIYQISISLDAGLDHRNKLNQHRYIQKILEFCRYKCEKNSEVFLNLRIQDSTLDKHQNLIKPFLESFECVSLEGLKTQGRARLFKKSFLNIQKTFKWPSLNAQNPLNQKSKIPYCYGLIKQIAILSNGVVVPCCMDTQANISLGDLNHTPLKDVLKSQKAMAIKTHFLKGEALELLCQNCSYPLIRYKK
Resp: 0.36 OD595
